System: Human immunodeficiency virus 1
Assay: Antiviral activity against HIV1 NL4-3 infected human MT2 cells assessed as viral infection at 25 uM administered 30 mins before viral challenge by luciferase reporter gene activation assay relative to control
Type: functional
# note: exactly 10% is not below, so it is -1; use 1 for Activity strictly under it

Reference set, count: 4
{"columns": ["MOLECULE", "CLASS ASSIGNMENT"],
 "data": [
  ["COC(=O)CCCCCNC(=O)[C@]12CCC(C)(C)C[C@H]1C1=CC[C@@H]3[C@@]4(C)C[C@@H](O)[C@H](O)C(C)(C)[C@@H]4CC[C@@]3(C)[C@]1(C)CC2", -1],
  ["CC1(C)CC[C@]2(C(=O)O)CC[C@]3(C)C(=CC[C@@H]4[C@@]5(C)C[C@@H](O)[C@H](O)C(C)(C)[C@@H]5CC[C@]43C)[C@@H]2C1 [MASLINIC ACID]", 1],
  ["C[C@H](NC(=O)CCCNC(=O)[C@]12CCC(C)(C)C[C@H]1C1=CC[C@@H]3[C@@]4(C)C[C@@H](O)[C@H](O)C(C)(C)[C@@H]4CC[C@@]3(C)[C@]1(C)CC2)C(=O)O", -1],
  ["COC(=O)CCCCCCCCCCNC(=O)[C@]12CCC(C)(C)C[C@H]1C1=CC[C@@H]3[C@@]4(C)C[C@@H](O)[C@H](O)C(C)(C)[C@@H]4CC[C@@]3(C)[C@]1(C)CC2", -1]
]}

Now consider the entry below.
q: Please indicate whether the reported Activity of COC(=O)[C@@H](NC(=O)[C@]12CCC(C)(C)C[C@H]1C1=CC[C@@H]3[C@@]4(C)C[C@@H](O)[C@H](O)C(C)(C)[C@@H]4CC[C@@]3(C)[C@]1(C)CC2)C(C)C is strictly below 10%.
a: -1

src = ChEMBL document CHEMBL1143374
